# IC50 values compiled below
Molecular target: CDK1/cyclinB (Homo sapiens)
Sequence (P06493 whole entry): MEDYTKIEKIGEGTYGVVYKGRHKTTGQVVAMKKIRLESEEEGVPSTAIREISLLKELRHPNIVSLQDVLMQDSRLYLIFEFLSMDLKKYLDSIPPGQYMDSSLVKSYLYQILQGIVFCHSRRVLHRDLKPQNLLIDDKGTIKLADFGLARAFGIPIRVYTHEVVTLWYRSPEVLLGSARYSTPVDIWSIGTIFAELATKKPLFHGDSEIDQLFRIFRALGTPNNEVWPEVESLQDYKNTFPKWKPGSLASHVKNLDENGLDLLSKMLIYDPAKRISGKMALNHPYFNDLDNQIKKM
Sequence (P14635 whole entry partner): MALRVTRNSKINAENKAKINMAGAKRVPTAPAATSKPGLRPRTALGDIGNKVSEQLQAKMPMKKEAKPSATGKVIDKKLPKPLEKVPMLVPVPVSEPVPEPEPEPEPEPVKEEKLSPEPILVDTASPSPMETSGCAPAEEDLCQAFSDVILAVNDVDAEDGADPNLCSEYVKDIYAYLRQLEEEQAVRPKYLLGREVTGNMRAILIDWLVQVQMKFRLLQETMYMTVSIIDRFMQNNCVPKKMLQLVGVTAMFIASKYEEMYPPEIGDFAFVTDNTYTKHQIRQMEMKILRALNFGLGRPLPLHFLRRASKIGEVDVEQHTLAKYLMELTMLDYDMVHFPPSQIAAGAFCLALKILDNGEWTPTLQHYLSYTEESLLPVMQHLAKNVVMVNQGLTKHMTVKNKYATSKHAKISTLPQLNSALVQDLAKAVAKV
Assay: In vitro kinase TR-FRET assay CDK1/cyclinB
Assay type: biochemical
Details: enzyme 0.3 nM, ATP 56 μM

Record excerpt, results attached:
>  <molecule>
CC(C)NC(=O)OC1CCC(c2cc(Nc3ccc4c(c3)CN(C)S4(=O)=O)[nH]n2)C1 (racemic) [Example 23]

>  <valueKind>
IC50

>  <result>
50 to 500 nM

$$$$
>  <molecule>
CC(C)NC(=O)O[C@@H]1CC[C@H](c2cc(Nc3ccc4c(c3)N(C)CNS4(=O)=O)n[nH]2)C1 [Example 12]

>  <valueKind>
IC50

>  <result>
< 50 nM

$$$$
>  <molecule>
CC(C)NC(=O)O[C@@H]1CC[C@H](c2cc(Nc3cccc4c3S(=O)(=O)CC4)n[nH]2)C1 [Example 35]

>  <valueKind>
IC50

>  <result>
> 1000 nM

$$$$
>  <molecule>
CC(C)NC(=O)O[C@@H]1CC[C@H](c2cc(Nc3ccc4c(c3)CS(=O)(=O)C4)n[nH]2)C1 [Example 22]

>  <valueKind>
IC50

>  <result>
< 50 nM

$$$$
>  <molecule>
CC(C)NC(=O)O[C@@H]1CC[C@H](c2cc(Nc3ccc4c(c3)CCC4=O)n[nH]2)C1 [Example 25]

>  <valueKind>
IC50

>  <result>
50 to 500 nM

$$$$
>  <molecule>
CC(C)NC(=O)O[C@@H]1CC[C@H](c2cc(Nc3cccc4c3CCS(=O)(=O)N4)n[nH]2)C1 [Example 53]

>  <valueKind>
IC50

>  <result>
500 to 1000 nM

$$$$

Okay, next one:
Problem: Which IC50 is listed for CC(C)NC(=O)O[C@H]1CC[C@@H](c2cc(Nc3cccc4c3CCS4(=O)=O)n[nH]2)CC1 [Example 49] ?
Result: 50 to 500 nM

Source listed as patent US20240246950A1.
